# Tested on: HCT-15
# Procedure Summary: Growth inhibition of human HCT15 cells after 24 hrs by MTT assay
# Format: functional, cell-based
# Test Settings: HCT-15, 24 h
Quantity Measured: IC50 (µM)
Kindly answer with a numeric value in µM, unit omitted.

In [3]: df
Out[3]:
                                   compound  quantity_measured  display_unit  result_number
0  O=C1C2CC=CCC2C(=O)N1c1ccc(S(=O)(=O)c2ccc(N3C(=O)C4CC=CCC4C3=O)cc2)cc1 (stereo not drawn)               IC50            µM           14.4
1  O=P1(N(CCCl)CCCl)NCCCO1 (stereo not drawn) [CYCLOPHOSPHAMIDE ANHYDROUS]               IC50            µM           76.3

The record that follows has no IC50 shown yet.
**Q:** Data request, read-out IC50, for O=C1C2CCCCC2C(=O)N1c1ccc(S(=O)(=O)c2ccc(N3C(=O)C4CCCCC4C3=O)cc2)cc1 (stereo not drawn)
**A:** 63.3
